Target: BSA (UniProt P02769)
Sequence (P02769 25-607 limits assumed): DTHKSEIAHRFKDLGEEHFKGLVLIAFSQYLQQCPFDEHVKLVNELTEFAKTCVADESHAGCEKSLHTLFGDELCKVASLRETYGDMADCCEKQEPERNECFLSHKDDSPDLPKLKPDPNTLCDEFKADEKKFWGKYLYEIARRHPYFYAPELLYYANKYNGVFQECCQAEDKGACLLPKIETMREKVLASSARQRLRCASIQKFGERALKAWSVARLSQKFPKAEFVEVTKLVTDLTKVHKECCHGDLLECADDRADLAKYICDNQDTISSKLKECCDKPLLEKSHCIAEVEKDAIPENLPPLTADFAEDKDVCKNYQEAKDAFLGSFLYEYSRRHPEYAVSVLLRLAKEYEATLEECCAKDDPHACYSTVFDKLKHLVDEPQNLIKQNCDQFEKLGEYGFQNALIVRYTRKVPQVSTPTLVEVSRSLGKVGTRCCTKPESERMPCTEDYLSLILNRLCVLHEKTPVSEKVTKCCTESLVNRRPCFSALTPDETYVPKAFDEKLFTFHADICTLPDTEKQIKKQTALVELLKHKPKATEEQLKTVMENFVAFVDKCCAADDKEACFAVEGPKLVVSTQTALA
Assay: scFv ELISA
A collection of binders and their measured OD450
Value expressed in OD450; do not type the unit.

See these solved cases before continuing.
PcOxP_DB01_C01 (scFv, V domains shown, scFv in periplasmic extract) VH: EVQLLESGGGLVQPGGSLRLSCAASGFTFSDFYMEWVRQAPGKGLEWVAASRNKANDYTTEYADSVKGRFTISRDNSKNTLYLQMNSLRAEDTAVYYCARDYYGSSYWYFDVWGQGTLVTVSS VL: DIQMTQSPSSLSASVGDRVTITCVASESLYSSKHKVHYLAWYQQKPGKAPKLLIYGASNRYIGVPSRFSGSGSGTDFTLTISSLQPEDFATYYCAQFYSYPLTFGGGTKVEIK | 0.11
PcOxP_DB04_C08 (scFv, V domains shown, scFv in periplasmic extract) VH: EVQLLESGGGLVQPGGSLRLSCAASGETFSDFYMEWVRQAPGKGLEWVAASRNKANDYTTEYADSVKGRFTISRDNSKNTLYLQMNSLRAEDTAVYYCARDYYGSSYWYFDVWGQGTLVTVSS VL: DIQMTQSPSSLSASVGDRVTITCTASESLYSSKHGVHYLAWYQQKPGKAPKLLIYGASNRYIGVPSRFSGSGSGTDFTLTISSLQPEDFATYYCAQFYQYPLTFGGGTKVEIK | 0.08

From here, focus on the item given below.
**Query** Value lookup for OD450; key = PcOxP_DB04_C10 (scFv, V domains shown, scFv in periplasmic extract) VH: EVQLLESGGGLVQPGGSLRLSCAASGFTFSDGYMEWVRQAPGKGLEWVAAIRNKANDYTTEYADSVKGRFTISRDNSKNTLYLQMNSLRAEDTAVYYCARDYYGSHYWYFDVWGQGTLVTVSS VL: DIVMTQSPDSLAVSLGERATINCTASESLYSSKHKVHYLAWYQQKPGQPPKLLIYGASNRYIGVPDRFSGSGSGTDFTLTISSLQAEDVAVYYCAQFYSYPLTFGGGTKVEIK
**Result** 0.08
